// data source = PubChem BioAssay (NCI)

# System: M14 melanoma
# testName: NCI-60 one-dose screen, 48 h (100 = growth as untreated, 0 = no growth, -100 = all killed)
# settings: 10 µM unless noted
Compounds without any hit were thinned out: in the full panel of roughly 83,000, 20% have a hit.
Kindly return met if reported growth is no lower than 80%; return not met if it is lower.

[in] Confirm if growth reported for the compound "CCN(CC)CC#CCOC(=O)[C@]1(C)CCC[C@]2(C)c3ccc(C(C)C)cc3CC[C@@H]12" is 80% or above.
[out] met

[in] Check the entry "COc1ccc(C/C(C)=C(/c2ccc(OCCN3CCCCCC3)cc2)c2ccc(OC(=O)c3ccccc3)cc2)cc1" : does growth equal or exceed 80%?
[out] met

[in] Test whether the compound "CC1(C)C(N)=Nc2cc(OCCCCN3Cc4ccccc4C3)c(OCC3CC3)cc21" records growth of 80% or higher.
[out] not met

[in] Does "COCCn1cc(-c2csc(-c3cn(C)c4ccc(F)cc34)n2)c2cccnc21" have a reported growth of at least 80%?
[out] not met

###

# Test system: MALME-3M melanoma
# testName: NCI-60 one-dose screen, 48 h
# settings: 100 µM
About 83,000 compounds went through this panel and 20% of them were active in at least one assay; those are over-represented in the sample as a whole. The source made the active and inactive calls. The calls were made as follows: active = growth percent below 10; inactive = the rest.
Respond only with the outcome that fits, drawn from active, inactive

[in] Per the assay record, what outcome was assigned to "COc1ccc(C(=O)/C=C/c2ccc(OCc3cccc(C(F)(F)F)c3)c(OC)c2)cc1OC" ?
[out] inactive

[in] What is the recorded call for this compound in the test? "CC(=O)/C=C/c1ccc(N(CCO)Cc2ccc(C(C)(C)C)cc2)cc1"
[out] active

[in] For this compound, state the assay outcome: "CCN(Cc1ccccc1)c1ccc(/C=C2\COc3ccccc3C2=O)cc1"
[out] inactive

[in] Called result for "CC(=O)/C=C/c1ccc(OCc2ccc(C(C)(C)C)cc2)cc1"
[out] inactive

###

# Test system: IGROV1 ovarian
# testName: NCI-60 one-dose screen, 48 h
# settings: 10 µM unless noted
The panel holds about 83,000 compounds, 20% with a hit somewhere; the sample as a whole holds those more often. Calls of active or inactive are those of the source. Rule for the calls: active = growth percent below 10; inactive = the rest.
Hi there, use one of these labels in your reply, thanks! 1 = active, -1 = inactive

[in] Hi, do you know how "CONC1=Nc2cc(NC(N)=NCc3ccccc3)c(N(C)C3CCCCC3)cc2OC1" came out in this test?
[out] -1

[in] Could you check what this test reported for "Cn1cc(C2=C(c3cccc4ccccc34)C(=O)NC2=O)c2cc(Br)ccc21" ?
[out] -1

[in] Can you look up the reported call for "COc1ccc(C/C(C)=C(/c2ccc(OCCN3CCCC3)cc2)c2ccc(OC(=O)NCc3ccccc3)cc2)cc1" for me?
[out] -1

[in] Outcome logged for "O=C(/C=C/c1cccs1)Nc1ncc(Cc2ccc(Cl)c(Cl)c2)s1" in this assay:
[out] -1

[in] Query: recorded result category for "O=C(CN1C(=O)S/C(=C\C(Cl)=C\c2ccccc2)C1=O)NCCCn1ccnc1" in this test
[out] 1

[in] Which outcome was entered for the compound CCCCC(NC(=O)CN1C(=O)/C(=C/C(C)=C/c2ccccc2)SC1=S)C(=O)O (centres undefined) in this test?
[out] -1

[in] Per the records of this test, what outcome belongs to CC12OC(CC(O)C1O)n1c3ccccc3c3c4c(c5c6ccccc6n2c5c31)C(=O)N(CCN1CCOCC1)C4=O (centres undefined) ?
[out] 1

[in] What did this assay record as the result for "N=c1c2c(-c3ccccc3)c(-c3ccccc3)oc2ncn1NC(=O)c1cccnc1" ?
[out] -1

[in] Look up the recorded call for "CCN(CC)CC(=O)Nc1ccc2ncnc(Nc3ccc(Oc4cccc(F)c4)c(Cl)c3)c2c1" in this test.
[out] -1

###

Kindly state growth for each of the entries shown.
# Test system: CAKI-1 renal
# testName: NCI-60 one-dose screen, 48 h (100 = growth as untreated, 0 = no growth, -100 = all killed)
# settings: 10 µM unless noted
Compounds without any hit were thinned out: in the full panel of roughly 83,000, 20% have a hit.
Kindly provide the numeric value in % only, without the unit symbol.

Query "CCCCCCCCCCCCCCCCCCOc1cccc(CC(=O)OCC[N+](CC)(CC)CC)c1" on CAKI-1 renal; growth returned: 62.7

Assay CAKI-1 renal, sample "CNC(=O)c1cc(Oc2ccc3nc(NC(=O)Nc4ccc(C(F)(F)F)cc4)sc3c2)ccn1" , growth read: 92

Entry "Cc1ccc(C(=O)N(CCCN)[C@@H](c2nc3cc(Cl)ccc3c(=O)n2Cc2ccccc2)C(C)C)cc1" , tested on CAKI-1 renal, has a reported growth of 4.04

Tested on CAKI-1 renal, the item "COc1ccc(-c2nnc3n(C)c(=O)c4ccccc4n23)cc1O" showed growth equal to 35.2

growth of "COC(=O)[C@H]1Cc2c([nH]c3ccccc23)[C@@H](c2cccs2)N1" , assay on CAKI-1 renal, is 89.8

Tested system CAKI-1 renal; growth recorded for "CCOC(=O)c1ccc(Nc2ncnc3c2cnn3-c2cccc(F)c2)cc1" was 84.8

// growth (CAKI-1 renal) for "Clc1cccc(Nc2ncnc3ccc(-c4cncc(-n5cnnn5)c4)cc23)c1" = 24.3

Reported CAKI-1 renal growth for item "COc1ccc2c(c1)oc1c(C)c3c(c(C)c12)C(=O)N(Nc1ccccc1)C3=O" was 91.5

The reported growth value, CAKI-1 renal, for "CCCCCCNC(=O)Oc1ccc(/C(=C(/CC)Cc2ccccc2)c2ccc(OCCCN(C)C)cc2)cc1" reads 89.6

growth value, target or system CAKI-1 renal, for "N=C(N)c1ccc(-c2ccc(-c3ccc(Cl)c(Cl)c3)s2)cc1" : -69

###

# Tested on: SW-620 colon
# testName: NCI-60 one-dose screen, 48 h (100 = growth as untreated, 0 = no growth, -100 = all killed)
# settings: 10 µM unless noted
About 83,000 compounds went through this panel and 20% of them were active in at least one assay; those are over-represented in the sample as a whole.
Exercise: state measured growth for each of the compounds provided.
The answer is to be given in %; state only the numeric part.

Entry CN(C)CCN1C(=O)c2c(c3c4ccccc4n4c3c3c2c2ccccc2n3C2CC(O)C(O)C4(C)O2)C1=O (stereo not given) — recorded growth = 18.5

Quick note, growth for "Nc1ccc(-c2nc3ccc4[nH]ncc4c3c3c2CCCC3)cc1F" landed at 18.7

The value of growth measured for the compound "FC(F)(F)Sc1ccc(/C=C/c2cc(/C=C/c3ccc(SC(F)(F)F)cc3)n(-c3ccccc3)n2)cc1" turned out to be 94.9

Measured growth of "CCNC(=O)Nc1ncccc1OCc1ccc(F)cc1" : 104

growth reported for this compound "CC/C=C\C/C=C\C[C@H](O)C/C=C1/C(=O)C=C[C@@H]1C/C=C\CCCC(=O)OC" : -46.3

Entry under test: "O=C1C(Nc2ccc(Cl)cc2)=C(I)C(=O)c2ncccc21" . Its growth was -27

Just so you know, measured growth for "COc1cc(Cl)cc(-c2nn(C(=O)NS(=O)(=O)c3ccc(Cl)cc3)cc2-c2ccncc2)c1" came out at 114

Looking up "COc1ccc(-c2csc(NC(=O)CN3CCN(CCO)CC3)n2)cc1NS(=O)(=O)c1cccc2c(N(C)C)cccc12" , I see its growth listed as 84.1

// field: growth; key: C#CCOCC1CN(C)C(=O)O1 (stereo not given) ; value = 97

Entry "O=C(/C=C/c1ccc([N+](=O)[O-])cc1)c1ccccc1" — recorded growth = 72.1

###

What growth was measured for each of the following?
# Test system: OVCAR-4 ovarian
# testName: NCI-60 one-dose screen, 48 h (100 = growth as untreated, 0 = no growth, -100 = all killed)
# settings: 10 µM unless noted
The panel holds about 83,000 compounds, 20% with a hit somewhere; the sample as a whole holds those more often.
Give the quantity in %, number only.

Field growth (entry "CN1CCN(Cc2ccc(NC(=O)c3nc4ccc5[nH]ncc5c4c4c3CCCC4)cc2C(F)(F)F)CC1" ) reads -39.7

// O=C(NNc1ccccc1)C1CCCN1 (stereo not given) : growth value = 64.5

Form: compound = "O=C1C(N2CCOCC2)=C(I)C(=O)c2ncccc21" ; growth = 59

The measured growth associated with "COc1ccc(Nc2ncnc3ccc(-c4cncc(NS(C)(=O)=O)c4)cc23)cc1Cl" reads 57.5

Consider "COCCn1cc(-c2csc(-c3cn(C)c4ccc(F)cc34)n2)c2cccnc21" . Its measured growth is 47.8

Reported growth ( "COc1ccc(/C=C2/C(=O)N=C3N2NC(c2ccccc2)=CN3c2ccccc2)cc1" ) = 102

growth recorded for this compound, "CCOC(=O)C1=C(C)N=C2SC=C(c3ccc(F)cc3)N2[C@H]1c1cn(-c2ccccc2)nc1-c1ccc(Cl)cc1" , is 102

For reference, reported growth for "CN1CCN(c2ccc(Nc3ncc(C(N)=O)c(NCCCNC(=O)C4CCC4)n3)cc2)CC1" stands at 73.1

"Cc1ccc(-c2nc3nc(-c4ccc(Cl)cc4)nc(N4CCCNCC4)c3o2)cc1" yielded growth of -83.5

The compound "COc1ccc(-c2ccc(-c3ccc(C(=N)N)cn3)o2)cc1Cl" showed growth equal to 38.8
